Numbers sourced from paper PMC8571951.

- target.system: native LOXL2 protein in human plasma (Homo sapiens)
- assay.protocol: PXS-5878/Simoa platform, residual LOXL2 activity in human plasma
- condition.details: human plasma incubated 30 min; read-out: IC50, inhibition of native LOXL2 in human plasma
quantity: IC50

CC(C)c1c(Cc2ccc(S(C)(=O)=O)nc2)c2ncccc2n1C/C(F)=C/CN [PXS‐5338] ... 37 nM

* * *

- target.system: LOXL2 (Homo sapiens, UniProt Q9Y4K0)
- Sequence (Q9Y4K0 26-774): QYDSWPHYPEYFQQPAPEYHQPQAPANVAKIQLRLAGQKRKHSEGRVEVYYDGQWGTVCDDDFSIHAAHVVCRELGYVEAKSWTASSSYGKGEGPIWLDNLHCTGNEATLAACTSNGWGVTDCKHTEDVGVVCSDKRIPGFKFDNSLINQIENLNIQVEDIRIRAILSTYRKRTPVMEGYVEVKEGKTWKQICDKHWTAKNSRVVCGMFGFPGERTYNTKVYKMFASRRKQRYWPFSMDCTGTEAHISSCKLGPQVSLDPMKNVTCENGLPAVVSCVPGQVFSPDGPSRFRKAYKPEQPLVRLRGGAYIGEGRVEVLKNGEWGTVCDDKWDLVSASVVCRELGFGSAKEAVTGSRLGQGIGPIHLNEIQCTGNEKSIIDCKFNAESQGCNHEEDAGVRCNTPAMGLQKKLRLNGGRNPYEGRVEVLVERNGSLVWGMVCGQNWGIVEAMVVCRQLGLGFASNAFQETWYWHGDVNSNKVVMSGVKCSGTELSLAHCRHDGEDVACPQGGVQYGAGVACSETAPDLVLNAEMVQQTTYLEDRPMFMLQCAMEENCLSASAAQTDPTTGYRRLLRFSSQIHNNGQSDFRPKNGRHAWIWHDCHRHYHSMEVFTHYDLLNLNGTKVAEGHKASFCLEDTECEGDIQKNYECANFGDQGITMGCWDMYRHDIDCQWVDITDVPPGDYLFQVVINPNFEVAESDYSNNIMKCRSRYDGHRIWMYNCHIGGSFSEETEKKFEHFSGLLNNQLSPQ
- assay.protocol: Standard Amplex Red assay, rh LOXL2 (putrescine substrate)
- Type: biochemical
- condition.details: Amplex Red assay, 30 min pre-incubation
Recorded IC50, one value per entry.
quantity: IC50 (nM)

NC/C=C(\F)CS(=O)(=O)c1cccc(Cn2cc(-c3cc(OCCCc4cn(CCCCC[C@@H]5SC[C@@H]6NC(=O)N[C@@H]65)nn4)cc(OCCCc4cn(CCCCC[C@@H]5SC[C@@H]6NC(=O)N[C@@H]65)nn4)c3)nn2)c1 ... 203
CC(C)c1c(Cc2ccc(S(C)(=O)=O)nc2)c2ncccc2n1C/C(F)=C/CN ... 35

* * *

- target.system: Recombinant human LOXL1 (Homo sapiens, UniProt Q08397)
- Sequence (Q08397 96-574): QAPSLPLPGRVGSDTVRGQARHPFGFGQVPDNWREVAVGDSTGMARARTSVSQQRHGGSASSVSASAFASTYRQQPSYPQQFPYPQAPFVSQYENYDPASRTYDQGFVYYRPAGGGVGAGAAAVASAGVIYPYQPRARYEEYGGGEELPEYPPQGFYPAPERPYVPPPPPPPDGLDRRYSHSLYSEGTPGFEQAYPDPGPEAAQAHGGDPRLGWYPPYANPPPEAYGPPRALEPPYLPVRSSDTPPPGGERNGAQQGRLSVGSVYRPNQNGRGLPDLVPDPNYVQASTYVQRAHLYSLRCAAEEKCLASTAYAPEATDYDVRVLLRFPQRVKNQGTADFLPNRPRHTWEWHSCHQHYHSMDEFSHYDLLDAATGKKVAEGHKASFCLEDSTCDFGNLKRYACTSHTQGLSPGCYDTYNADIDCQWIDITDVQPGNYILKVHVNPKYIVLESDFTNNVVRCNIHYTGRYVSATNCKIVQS
- assay.protocol: Standard Amplex Red assay, rh LOXL1
- condition.details: 30 min pre-incubation
pIC50: −log10 of the molar value.
quantity: pIC50

NC/C=C(\F)CS(=O)(=O)c1cccc(Cn2cc(-c3cc(OCCCc4cn(CCCCC[C@@H]5SC[C@@H]6NC(=O)N[C@@H]65)nn4)cc(OCCCc4cn(CCCCC[C@@H]5SC[C@@H]6NC(=O)N[C@@H]65)nn4)c3)nn2)c1 ... 5.75
CC(C)c1c(Cc2ccc(S(C)(=O)=O)nc2)c2ncccc2n1C/C(F)=C/CN ... 5.60

* * *

- target.system: LOXL2 (Homo sapiens)
- Sequence (Q9Y4K0 26-774): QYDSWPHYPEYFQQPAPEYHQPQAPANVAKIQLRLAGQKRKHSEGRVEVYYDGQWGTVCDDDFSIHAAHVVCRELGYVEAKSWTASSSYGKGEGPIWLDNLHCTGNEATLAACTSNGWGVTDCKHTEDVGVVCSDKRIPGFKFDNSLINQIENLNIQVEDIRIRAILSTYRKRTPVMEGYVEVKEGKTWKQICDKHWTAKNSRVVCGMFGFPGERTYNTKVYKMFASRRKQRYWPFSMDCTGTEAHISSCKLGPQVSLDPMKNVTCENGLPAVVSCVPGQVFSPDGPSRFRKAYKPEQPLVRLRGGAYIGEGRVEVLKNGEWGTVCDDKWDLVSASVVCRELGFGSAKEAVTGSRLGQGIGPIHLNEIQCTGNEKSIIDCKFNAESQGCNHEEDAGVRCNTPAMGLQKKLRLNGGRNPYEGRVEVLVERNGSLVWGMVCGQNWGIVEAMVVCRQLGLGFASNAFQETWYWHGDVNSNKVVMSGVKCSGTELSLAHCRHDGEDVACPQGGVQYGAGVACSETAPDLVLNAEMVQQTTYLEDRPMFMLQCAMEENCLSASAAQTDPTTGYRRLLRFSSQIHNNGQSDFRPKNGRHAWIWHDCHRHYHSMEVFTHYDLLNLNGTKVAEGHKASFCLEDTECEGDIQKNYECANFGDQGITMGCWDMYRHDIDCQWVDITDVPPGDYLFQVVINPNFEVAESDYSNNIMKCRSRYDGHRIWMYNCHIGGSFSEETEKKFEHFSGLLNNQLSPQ
- assay.protocol: Phase 1 study, LOXL2 activity in plasma after single oral dose (PXS-5878/Simoa)
- Assay type: in vivo
- Parameters: from tissue; host or cells: human plasma (activity) and human serum (protein concentration) from clinical trial subjects
- condition.details: phase 1 samples, n = 210; read-out: Calculated IC50 from correlation of concentration versus % inhibition
quantity: IC50 (nM)

CC(C)c1c(Cc2ccc(S(C)(=O)=O)nc2)c2ncccc2n1C/C(F)=C/CN [PXS‐5338] ... 24
